- TARGET_ENTITY: AMPK
- PROCEDURE_SUMMARY: AMPK enzyme inhibition
- ASSAY_CONDITIONS: Target AMPK
MEASURED_ENDPOINT: IC50

• COc1cccc(CNc2nnc(-c3c[nH]c4ncccc34)o2)c1 = 1 to 100 nM

###

- TARGET_ENTITY: MKK1 (Homo sapiens, UniProt Q02750)
- Sequence (Q02750 whole entry, species assumed): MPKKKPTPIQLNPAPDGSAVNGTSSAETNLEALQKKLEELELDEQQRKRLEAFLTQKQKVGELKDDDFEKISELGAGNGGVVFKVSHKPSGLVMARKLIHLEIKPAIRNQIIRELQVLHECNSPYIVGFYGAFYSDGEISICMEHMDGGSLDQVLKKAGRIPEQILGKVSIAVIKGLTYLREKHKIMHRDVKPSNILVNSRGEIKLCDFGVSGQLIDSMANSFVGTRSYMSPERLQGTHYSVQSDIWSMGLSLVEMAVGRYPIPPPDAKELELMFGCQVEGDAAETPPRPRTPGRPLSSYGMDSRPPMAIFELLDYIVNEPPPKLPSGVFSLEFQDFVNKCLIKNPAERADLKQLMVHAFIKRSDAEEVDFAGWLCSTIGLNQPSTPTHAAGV
MEASURED_ENDPOINT: IC50

* COc1cccc(CNc2nnc(-c3c[nH]c4ncccc34)o2)c1 [Compound A1] | 1 to 100 nM

###

- TARGET_ENTITY: SGK1 (Homo sapiens, UniProt O00141)
- Sequence (O00141 whole entry, species assumed): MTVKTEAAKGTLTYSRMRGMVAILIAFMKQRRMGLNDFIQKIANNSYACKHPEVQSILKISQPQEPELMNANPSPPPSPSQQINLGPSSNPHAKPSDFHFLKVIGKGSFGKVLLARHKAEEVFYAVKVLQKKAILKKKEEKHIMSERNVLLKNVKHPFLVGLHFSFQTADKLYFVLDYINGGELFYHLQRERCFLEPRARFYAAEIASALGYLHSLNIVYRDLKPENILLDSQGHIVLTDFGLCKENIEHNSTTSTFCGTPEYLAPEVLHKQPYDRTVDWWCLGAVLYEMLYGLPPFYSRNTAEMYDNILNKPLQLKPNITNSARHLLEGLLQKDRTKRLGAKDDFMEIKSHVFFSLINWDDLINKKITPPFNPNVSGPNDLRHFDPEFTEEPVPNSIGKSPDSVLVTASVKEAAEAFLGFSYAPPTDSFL
- PROCEDURE_SUMMARY: SGK1 enzyme inhibition (filter binding method)
- Format: biochemical
- ASSAY_CONDITIONS: Target SGK1
pIC50: −log10 of the molar value.
# reported pIC50; entries follow
MEASURED_ENDPOINT: pIC50

- COc1cccc(CNc2nnc(-c3c[nH]c4ncc(Br)cc34)o2)c1 [Compound A4]: 7.00 to 9.00
- Nc1nnc(-c2c[nH]c3ncccc23)o1 [Compound A3]: 5.00 to 7.00
- COc1cccc(CNc2nnc(-c3c[nH]c4ncccc34)o2)c1 [Compound A1]: 7.00 to 9.00
- COc1cccc(CNc2nnc(-c3c[nH]c4ncc(-c5cn[nH]c5)cc34)o2)c1 [Compound A6]: 5.00 to 7.00
- c1ccc(Nc2nnc(-c3c[nH]c4ncccc34)o2)cc1 [Compound A2]: 5.00 to 7.00
- Fc1cccc(CNc2nnc(-c3c[nH]c4ncccc34)o2)c1 [Compound A5]: 7.00 to 9.00
